# System: Hepatotoxicity
# Assay Comment: FDA HLAED, lactate dehydrogenase (LDH) increase
# Measurement Parameters: human
Measure Name: LDH Increase - Index Value
Please give the numeric answer without any surrounding text.

- CC(C)(C)NCC(O)c1ccc(O)c(CO)c1 (centres undefined): 0
- CNCCC(Oc1ccc(C(F)(F)F)cc1)c1ccccc1 (centres undefined): 3.2
- O=[N+]([O-])O[C@@H]1CO[C@H]2[C@@H]1OC[C@@H]2O [ISOSORBIDE MONONITRATE]: 0.2
- CC(C)(C)NC[C@H](O)COc1nsnc1N1CCOCC1: 0.1
- CN(C)CC/C=C1/c2ccccc2COc2ccc(CC(=O)O)cc21: 0
- C[C@H]1C[C@H]2[C@@H]3C[C@H](F)C4=CC(=O)C=C[C@]4(C)[C@@]3(F)[C@@H](O)C[C@]2(C)[C@@]1(O)C(=O)CCl: 0

Query :: Provide one value: measured LDH Increase - Index Value of CC(C(=O)O)c1cccc(C(=O)c2ccccc2)c1 (centres undefined)
Result :: 0.4

Query :: Report measured LDH Increase - Index Value; entry is Nc1ccn([C@H]2CC[C@@H](CO)O2)c(=O)n1
Result :: 1.4

Query :: In one line, give reported LDH Increase - Index Value of the entry O=C(O)P(=O)(O)O .
Result :: 48.4

* * *

# Test system: Hepatotoxicity
# Assay Comment: FDA HLAED, alkaline phosphatase increase
# Measurement Parameters: human
Measure Name: Alkaline Phosphatase Increase - Index Value

Below, 5 molecules whose answers are already recorded.
- CCOC(=O)c1cncn1[C@H](C)c1ccccc1 [ETOMIDATE]: 0
- CCc1cccc2c3c([nH]c12)C(CC)(CC(=O)O)OCC3 (stereo not drawn): 0.8
- CCc1c2c(nc3ccc(OC(=O)N4CCC(N5CCCCC5)CC4)cc13)-c1cc3c(c(=O)n1C2)COC(=O)[C@]3(O)CC: 4.1
- N=C(N)N/N=C/c1c(Cl)cccc1Cl: 0
- O=C1C(O)=C([C@H]2CC[C@H](c3ccc(Cl)cc3)CC2)C(=O)c2ccccc21: 0

Query :: Please give the documented Alkaline Phosphatase Increase - Index Value of CCCc1c2oc(C(=O)O)cc(=O)c2cc2c(=O)cc(C(=O)O)n(CC)c12
Result :: 0

Query :: Supply reported Alkaline Phosphatase Increase - Index Value belonging to this molecule: CCOC(=O)[C@H](CCc1ccccc1)N[C@@H](C)C(=O)N1Cc2cc(OC)c(OC)cc2C[C@H]1C(=O)O
Result :: 0

Query :: Annotate the molecule CC(=O)OCC(=O)[C@@]12OC3(CCCC3)O[C@@H]1C[C@H]1[C@@H]3CCC4=CC(=O)C=C[C@]4(C)[C@@]3(F)[C@@H](O)C[C@@]12C [AMCINONIDE] with its measured Alkaline Phosphatase Increase - Index Value.
Result :: 0

* * *

# Tested on: Hepatotoxicity
# Assay Comment: FDA HLAED, alkaline phosphatase increase
# Measurement Parameters: human
Measure Name: Alkaline Phosphatase Increase - Activity Score

Below, 5 compounds whose answers are already recorded.
• C[C@]12CC[C@@H]3c4ccc(OC(=O)Cc5ccc(N(CCCl)CCCl)cc5)cc4CC[C@H]3[C@@H]1CC[C@@H]2OC(=O)Cc1ccc(N(CCCl)CCCl)cc1 = Inactive
• CCOC(=O)[C@H](CCc1ccccc1)N[C@@H](C)C(=O)N1Cc2cc(OC)c(OC)cc2C[C@H]1C(=O)O = Inactive
• O=C1NC(c2ccccc2)(c2ccccc2)C(=O)N1COP(=O)(O)O = Inactive
• CC(=O)[C@]1(O)Cc2c(O)c3c(c(O)c2[C@@H](O[C@H]2C[C@H](N)[C@H](O)[C@H](C)O2)C1)C(=O)c1ccccc1C3=O = Inactive
• CO/N=C(\C(=O)N[C@@H]1C(=O)N2C(C(=O)O)=C(CSc3nc(=O)c(=O)[nH]n3C)CS[C@H]12)c1csc(N)n1 = Marginally Active

Query :: // fetch Alkaline Phosphatase Increase - Activity Score given entry CC[C@H]1OC(=O)[C@H](C)[C@@H](O[C@H]2C[C@@](C)(OC)[C@@H](O)[C@H](C)O2)[C@H](C)[C@@H](O[C@@H]2O[C@H](C)C[C@H](N(C)C)[C@H]2O)[C@](C)(OC)C[C@@H](C)C(=O)[C@H](C)[C@@H](O)[C@]1(C)O
Result :: Marginally Active

Query :: For the compound COc1ccc(C(CN(C)C)C2(O)CCCCC2)cc1 (stereo not given) , report Alkaline Phosphatase Increase - Activity Score.
Result :: Inactive

* * *

# System: Hepatotoxicity
# Assay Comment: FDA HLAED, liver enzyme composite activity
# Measurement Parameters: human
List of Composite Activity - Active values.
Reply briefly: the number, and no unit.

- CCOC(=O)c1cncn1[C@H](C)c1ccccc1 [ETOMIDATE]: 0
- C[N+](C)(C)CCO.Cn1c(=O)c2[n-]cnc2n(C)c1=O: 0
- C[C@H](CCC(=O)O)[C@H]1CC[C@H]2[C@@H]3[C@@H](O)C[C@@H]4C[C@H](O)CC[C@]4(C)[C@H]3CC[C@]12C: 2

Query :: Provide measured Composite Activity - Active value, entry: O=C(O)C1=C(CSc2nnnn2CS(=O)(=O)O)CS[C@@H]2[C@H](NC(=O)[C@H](O)c3ccccc3)C(=O)N12
Result :: 0

Query :: Quote Composite Activity - Active reported for Cn1nnnc1SCC1=C(C(=O)O)N2C(=O)[C@@H](NC(=O)[C@H](O)c3ccccc3)[C@H]2SC1 please.
Result :: 0

Query :: // Input: CCCCCCCN(CC)CCCC(O)c1ccc(NS(C)(=O)=O)cc1 (configuration not stated) [IBUTILIDE] . Output its Composite Activity - Active only.
Result :: 0

* * *

# Tested on: Hepatotoxicity
# Assay Comment: FDA HLAED, serum glutamic pyruvic transaminase (SGPT) increase
# Measurement Parameters: human
Measure Name: SGPT Increase - Number of Reports

- CO[C@H]1/C=C/O[C@@]2(C)Oc3c(C)c(O)c4c(c3C2=O)C2=NC3(CCN(CC(C)C)CC3)NC2=C(NC(=O)/C(C)=C\C=C\[C@H](C)[C@H](O)[C@@H](C)[C@@H](O)[C@@H](C)[C@H](OC(C)=O)[C@@H]1C)C4=O: >= 4
- CO[C@@]1(NC(=O)C2SC(=C(C(N)=O)C(=O)O)S2)C(=O)N2C(C(=O)O)=C(CSc3nnnn3C)CS[C@@H]21 (some centres undefined): < 4
- CC[C@@H]1C(=O)OC[C@@H]1Cc1cncn1C: < 4
- NCC1(CC(=O)O)CCCCC1: >= 4

* * *

# Tested on: Hepatotoxicity
# Assay Comment: FDA HLAED, alkaline phosphatase increase
# Measurement Parameters: human
The entries below are paired with their reported Alkaline Phosphatase Increase - Index Value.
// response body must contain only the number

Please review the following examples before continuing.
• Nc1ccn(C[C@@H](CO)OCP(=O)(O)O)c(=O)n1.O.O = 92.2
• O=C1CC[C@@]2(O)[C@H]3Cc4ccc(O)c5c4[C@@]2(CCN3CC2CC2)[C@H]1O5 [NALTREXONE] = 0
• NCCCNCCSP(=O)(O)O = 0
• C[N+](C)(C)C[C@H](O)CC(=O)[O-] = 0
• CC1=C(CC(=O)O)c2cc(F)ccc2/C1=C\c1ccc([S+](C)[O-])cc1 (centres undefined) = 0

Query :: Supply recorded Alkaline Phosphatase Increase - Index Value for NCC1(CC(=O)O)CCCCC1 here.
Result :: 0.7

Query :: Determine from records and report Alkaline Phosphatase Increase - Index Value for C[C@H](CCC(=O)O)[C@H]1CC[C@H]2[C@@H]3[C@@H](O)C[C@@H]4C[C@H](O)CC[C@]4(C)[C@H]3CC[C@]12C
Result :: 14.5

Query :: Answer with the recorded Alkaline Phosphatase Increase - Index Value of CC(=O)N(CC(O)CN(C(C)=O)c1c(I)c(C(=O)NCC(O)CO)c(I)c(C(=O)NCC(O)CO)c1I)c1c(I)c(C(=O)NCC(O)CO)c(I)c(C(=O)NCC(O)CO)c1I (centres undefined) only.
Result :: 0

Query :: State, in one line, measured Alkaline Phosphatase Increase - Index Value of CCCCCCCCCCC(=O)O[C@H]1CC[C@H]2[C@@H]3CCc4cc(O)ccc4[C@H]3CC[C@]12C [ESTRADIOL UNDECYLATE]
Result :: 1.5

* * *

# Test system: Hepatotoxicity
# Assay Comment: FDA HLAED, serum glutamic pyruvic transaminase (SGPT) increase
# Measurement Parameters: human
Measure Name: SGPT Increase - Index Value
Enter a number only.

- CC(O)(CS(=O)(=O)c1ccc(F)cc1)C(=O)Nc1ccc(C#N)c(C(F)(F)F)c1 (centres undefined) [BICALUTAMIDE]: 11.9
- Nc1nc(/C(=C/CC(=O)O)C(=O)N[C@@H]2C(=O)N3C(C(=O)O)=CCS[C@H]23)cs1: 0
- COc1ccc(Cl)cc1C(=O)NCCc1ccc(S(=O)(=O)NC(=O)NC2CCCCC2)cc1 [GLYBURIDE]: 2.2

We next turn to a different compound, shown below.
Query :: Give SGPT Increase - Index Value only, for COc1cccc(C2(O)CCCCC2CN(C)C)c1 (centres undefined) , using Hepatotoxicity data.
Result :: 0.8
